# System: hybridoma clone MAB 1/E2-5/B5
# ASSAY INFO: competitive immunoassay (ELISA), cross reactivity with MAB 1/E2-5/B5
# Assay type: binding, mouse
# CONDITION CONTEXT: n.b. = not determinable
# Experimental: The screening conjugates described in Section 1.2 were used for this purpose. In addition, "Maxisorp" (from the Nunc Corporation) microtiter plates were used. […] In this immunoassay, the hapten-OVA conjugates bound in the solid phase (Section 1.2) compete with the free antigen in the form of a solution of a mixture of pyrethroids. […] The reaction is stopped after 30 minutes with 2N H2 SO4 and evaluated by spectrophotometry. […]
RECORDED ENDPOINT: % cross reactivity

Use the examples below as a reference point.
[
  {
    "COMPOUND": "CC1(C)[C@H](C(=O)O)[C@@H]1C=C(Cl)Cl [cis-PMS, (1R,cis)-permethric acid]",
    "OBSERVED": "n.b."
  },
  {
    "COMPOUND": "O=C(O)c1cccc(Oc2ccccc2)c1",
    "OBSERVED": "n.b."
  },
  {
    "COMPOUND": "CC1(C)[C@H](C=C(Cl)Cl)[C@H]1C(=O)O [trans-PMS, (1R,trans)-permethric acid]",
    "OBSERVED": "> 1%"
  },
  {
    "COMPOUND": "CC1(C)[C@H](C(=O)O[C@H](C#N)c2cccc(Oc3ccccc3)c2)[C@@H]1C=C(Br)Br",
    "OBSERVED": "n.b."
  },
  {
    "COMPOUND": "CC(C)C(C(=O)OC(C#N)c1cccc(Oc2ccccc2)c1)c1ccc(Cl)cc1 (stereo not drawn)",
    "OBSERVED": "n.b."
  }
]

Now for a further compound.
Task item: // lookup % cross reactivity for CC(C)=CC1C(C(=O)O)C1(C)C (stereo not drawn)
Reply: n.b.
